The reader will find reported melting point values listed item by item below.

| Compound | melting point |
| --- | --- |
| CC(C)(C)c1ccc(N(c2ccc(-c3ccc(Nc4ccccc4)cc3)cc2)c2ccc(C(C)(C)C)cc2)cc1 | 161 to 162 °C |
| O=C1NCC(CCc2ccccc2)O1 (stereo not given) | 82 to 83 °C |
| Cc1cccc(NC(=O)NCC(=O)N(CC(=O)OC2CCCCC2)c2ccccc2)c1 | 176 °C |
| CCOC(=O)NC=Cc1ccc(OCC(O)CNC(C)(C)C)cc1 (stereo not given) | 99 to 100 °C |
| CCOC(=O)c1cn2c3c(cc(CN4CCOCC4)cc3c1=O)OC(c1ccccc1)C2 (stereo not given) | 213 to 215 °C |

Ask | Query (compound): `COc1nc(N)nc2nc(/C=C3/CC3(CO)CO)[nH]c12` ; field requested: melting point
Reply | 188 to 189 °C

Ask | What measured melting point goes with COc1ccc2c(c1)C(c1ccc(N)cc1)=NN(C(=O)C1CC1)C(C)C2 (stereo not given) ?
Reply | 93 to 95 °C

Ask | Look up melting point: `O=C(NCc1ccccc1)c1ccc(-c2ccc3nnn(Cc4ccc5ncccc5c4)c3n2)cc1F`
Reply | 163 to 165 °C

Ask | Need melting point, item `CCc1cccc2c(/C(C)=C/C(=O)O)cc(OC)c(OCOC)c12`
Reply | 114 to 115 °C

Ask | Endpoint output: melting point of `C=CCn1c(=O)c2cc(C(=O)O)cn2c2ccccc21` . Value?
Reply | 306 to 308 °C
